Overview of recorded inhibition for various molecules
# subjectOfTest: AP-2 complex subunit beta (Homo sapiens) (UniProt P63010)
# Sequence (P63010 whole entry, looked up, one chain of several): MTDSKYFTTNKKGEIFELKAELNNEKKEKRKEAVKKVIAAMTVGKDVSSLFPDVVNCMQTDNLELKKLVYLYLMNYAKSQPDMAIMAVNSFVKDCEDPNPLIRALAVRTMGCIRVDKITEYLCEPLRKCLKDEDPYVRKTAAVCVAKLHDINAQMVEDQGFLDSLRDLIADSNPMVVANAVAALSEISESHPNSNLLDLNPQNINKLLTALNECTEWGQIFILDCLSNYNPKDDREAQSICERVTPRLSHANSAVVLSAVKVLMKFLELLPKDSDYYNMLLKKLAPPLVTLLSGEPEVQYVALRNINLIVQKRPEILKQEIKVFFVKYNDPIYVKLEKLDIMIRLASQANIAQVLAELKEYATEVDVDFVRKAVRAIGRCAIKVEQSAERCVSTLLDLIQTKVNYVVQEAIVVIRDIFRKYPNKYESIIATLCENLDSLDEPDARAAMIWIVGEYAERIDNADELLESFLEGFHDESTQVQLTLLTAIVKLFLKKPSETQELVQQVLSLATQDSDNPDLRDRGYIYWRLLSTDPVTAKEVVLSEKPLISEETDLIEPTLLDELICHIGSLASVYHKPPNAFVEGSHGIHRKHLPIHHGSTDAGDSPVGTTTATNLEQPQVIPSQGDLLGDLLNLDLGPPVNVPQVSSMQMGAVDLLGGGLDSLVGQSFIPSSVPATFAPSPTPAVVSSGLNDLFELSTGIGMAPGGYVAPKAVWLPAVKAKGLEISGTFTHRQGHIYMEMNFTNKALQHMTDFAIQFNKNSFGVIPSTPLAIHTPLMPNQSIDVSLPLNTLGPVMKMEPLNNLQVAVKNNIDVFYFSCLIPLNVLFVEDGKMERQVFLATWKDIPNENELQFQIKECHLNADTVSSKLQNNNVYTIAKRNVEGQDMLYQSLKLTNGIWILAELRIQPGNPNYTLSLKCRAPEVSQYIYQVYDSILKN
# experimentNotes: inhibitors of arrestin peptide binding to AP2, pilot screen, biochemical, validation set, GST-AP2 beads, flow cytometry (AID 504541);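 also: AP2 carries R879A mutation and is captured from E. coli lysate; bead-bound FITC arrestin peptide fluorescence measuring arrestin peptide binding to AP2; 0% = DMSO wells and 100% = excess unlabeled arrestin peptide control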
# measurementContext: FITC arrestin peptide, at 10 µM, active compounds read high, AP2 beta2 appendage fragment, R879A mutant
Peptide text beside a SMILES is read from it. * marks the point of attachment. Boc = CC(C)(C)OC(=O)*; OBn = c1ccc(CO*)cc1

molecule	inhibition (%)
COC(=O)c1ccccc1OCCOCCOc1cccc2ccc(C)nc12	-2.13
COc1cc2c(cc1OC)C1(CCCCC1)CN(C)C2	4.18
CC(C)[N+](C)(CCOC(=O)C1c2ccccc2Oc2ccccc21)C(C)C	-3.24
CC(=O)N1CC23C=CC(CC2CC12CCCCCC2)O3 (stereo unspecified)	-0.87
CC(=O)N1N=C(c2cccs2)CC1c1ccc(C)o1 (stereo unspecified)	-6.28
C=CCc1ccccc1OCC(O)CNC(C)C (stereo unspecified)	-4.94
CN=C1c2cc3cc(OC)ccc3n2CCN1C	14.9
Cc1[nH]c2ccccc2c1C(=O)CN1CCCC1	4.83
OC[C@@H](O)[C@@H](O[C@H]1O[C@H](CO)[C@@H](O)[C@H](O)[C@H]1O)[C@H](O)[C@@H](O)CO	13.8
COc1ccc(/C=N\NC(=O)CCc2c(C)n[nH]c2C)c(OC)c1OC	7.15
CCOc1ccc(C(=O)Nc2ccc(N3CCN(C(C)=O)CC3)cc2)cc1[N+](=O)[O-]	-0.46
CC(C)CC(=O)OC1C(N2CCOCC2)c2c(ccc(/C=C/C(=O)N3CCOCC3)c2O)OC1(C)C (stereo unspecified)	35
COc1ccccc1-c1c(C(F)(F)F)oc2cc(OC(=O)c3ccc([N+](=O)[O-])cc3)ccc2c1=O	-4.55
CCOC(=O)C1C(=O)CC(C)(O)C(C(=O)OCC)C1/C=C/c1ccccc1 (stereo unspecified)	1.5
CC(=O)c1c(C)[nH]c(C(=O)OCc2ccccc2)c1C	9.32
CC(C)CC(NC(=O)C(NC(=O)OC(C)(C)C)C(C)C)C(=O)NC(CCC(=O)OCc1ccccc1)C(N)=O (stereo not drawn) (Boc-Val-Leu-Glu(OBn)-NH2; configuration not given here)	2.78
CN(C)CCOC(C)(c1ccccc1)c1ccccn1 (stereo unspecified)	13.9
CN1[C@@H](CC(=O)c2ccccc2)CCC[C@H]1C[C@H](O)c1ccccc1	-9.53
COc1ccc(OCC(=O)N2c3ccc(C)cc3C3CN(C)CCC32)cc1 (stereo unspecified)	-6.29
CN1CCN(C2=Nc3cc(Cl)ccc3Nc3ccccc32)CC1	9.21
CC1(C)c2ccccc2N2CC(=O)N(CC(N)=O)C21C (stereo unspecified)	-1.94

// provenance: PubChem BioAssay
